# target.or.test.system: D(2) dopamine receptor (Homo sapiens)
# Sequence (P14416 whole entry): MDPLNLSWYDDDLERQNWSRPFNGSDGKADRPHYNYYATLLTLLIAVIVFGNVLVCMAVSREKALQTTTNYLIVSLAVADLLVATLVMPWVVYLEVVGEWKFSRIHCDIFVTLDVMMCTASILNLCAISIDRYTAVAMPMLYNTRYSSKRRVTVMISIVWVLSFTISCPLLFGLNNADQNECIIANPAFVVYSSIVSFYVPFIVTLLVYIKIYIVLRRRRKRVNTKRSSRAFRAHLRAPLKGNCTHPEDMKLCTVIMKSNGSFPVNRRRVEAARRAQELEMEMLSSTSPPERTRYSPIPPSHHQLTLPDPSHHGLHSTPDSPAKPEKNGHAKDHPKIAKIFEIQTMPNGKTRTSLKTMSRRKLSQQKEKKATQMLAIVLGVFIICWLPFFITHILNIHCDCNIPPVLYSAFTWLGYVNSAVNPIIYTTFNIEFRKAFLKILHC
# experiment.summary: Tested for binding affinity for Dopamine D2 receptor
pIC50: −log10 of the molar value.
measured.endpoint: pIC50

q: State its pIC50: CN1C2CCC1CC(NC(=O)c1cnn3ccccc13)C2 (stereo unspecified)
a: < 5.00

---

Each entry below carries its recorded ED50.
# target.or.test.system: Serotonin 3 (5-HT3) receptor (Rattus norvegicus) (UniProt P35563+Q9JJ16)
# experiment.summary: Ability to antagonise the 5-HT- induced Von Bezold-Jarisch reflex in the rat after intravenous administration of 30 ug/kg of HT (5-hydroxytryptamine 3 receptor)
# Type: functional, organism-based
I only need the number, in mg/kg, no unit after it.

q: Consider the compound Cc1nn2ncccc2c1C(=O)NC1CC2CCC(C1)N2C (centres undefined) . State its measured ED50.
a: 0.05

Okay, next one:
q: State its ED50 for this compound: Cc1nn2ccccc2c1C(=O)NC1CC2CCC(C1)N2C (centres undefined)
a: 0.0012

---

# target.or.test.system: Serotonin 3 (5-HT3) receptor (Rattus norvegicus) (UniProt P35563+Q9JJ16)
# experiment.summary: Antagonism of 5-HT-induced Von Bezold-Jarisch reflex in rat after intravenous administration of 30 ug/kg of HT (5-hydroxytryptamine 3 receptor antagonism)
# Format: functional, organism-based
measured.endpoint: ED50
I'd appreciate it if you included the unit after the number.

Record excerpt, results attached:
q: Name the recorded ED50 of the compound listed here: CN1C2CCCC1CC(NC(=O)c1cnn3ccccc13)C2 (centres undefined)
a: 5 µg/kg

q: Could you please provide reported ED50 for Cc1nn2ccccc2c1C(=O)NC1CC2CCCC(C1)N2C (centres undefined) ? Thanks!
a: 6 µg/kg

q: Recall and state the measured ED50 for O=C(NC1CN2CCC1CC2)c1cnn2ccccc12 (centres undefined) .
a: 1 µg/kg

Others:
q: Provide only the value of recorded ED50 for CN1C2CCC1CC(NC(=O)c1cnn3ncccc13)C2 (centres undefined)
a: 30 µg/kg

q: Dear colleague, please send me the reported ED50 for CN1C2CCC1CC(OC(=O)c1cnn3ccccc13)C2 (centres undefined) when you can.
a: 2 µg/kg

q: Output measured ED50 for this item: CN1C2CCC1CC(NC(=O)c1cnn3ccccc13)C2 (centres undefined)
a: 0.74 µg/kg

q: Please report the measured ED50 for O=C(N[C@H]1CN2CCC1C2)c1cnn2ccccc12 (some centres undefined)
a: 2 µg/kg

q: Give the measured ED50 for CN1[C@@H]2CC[C@H]1C[C@@H](OC(=O)c1c[nH]c3ccccc13)C2 [TROPISETRON]
a: 0.5 µg/kg

q: Tell me its ED50 given "O=C(N[C@@H]1CN2CC[C@@H]1C2)c1cnn2ccccc12" as the entry.
a: 8 µg/kg

---

Recorded pIC50, one value per entry.
# target.or.test.system: Serotonin 3 (5-HT3) receptor (Rattus norvegicus, UniProt P35563+Q9JJ16)
# experiment.summary: Inhibition of [3H]GR-65630 binding to rat cortical membrane serotonin 3 receptor
Lab note: report pIC50 as minus log10 of the concentration in molar units, number only.

q: Let me know recorded pIC50 for "O=C(N[C@@H]1CN2CC[C@@H]1C2)c1cnn2ccccc12" , thanks.
a: 7.14

New cases:
q: Annotate the compound O=C(NC1CN2CCC1CC2)c1cnn2ccccc12 (centres undefined) with its measured pIC50.
a: 7.12

q: Input Cc1nn2ncccc2c1C(=O)NC1CC2CCC(C1)N2C (centres undefined) , output reported pIC50.
a: 6.91

q: # return recorded pIC50 for input Cc1nn2ccccc2c1C(=O)NC1CC2CCCC(C1)N2C (centres undefined)
a: 7.19

---

# target.or.test.system: Serotonin 3 (5-HT3) receptor (Rattus norvegicus, UniProt P35563+Q9JJ16)
# Sequence (P35563 whole entry): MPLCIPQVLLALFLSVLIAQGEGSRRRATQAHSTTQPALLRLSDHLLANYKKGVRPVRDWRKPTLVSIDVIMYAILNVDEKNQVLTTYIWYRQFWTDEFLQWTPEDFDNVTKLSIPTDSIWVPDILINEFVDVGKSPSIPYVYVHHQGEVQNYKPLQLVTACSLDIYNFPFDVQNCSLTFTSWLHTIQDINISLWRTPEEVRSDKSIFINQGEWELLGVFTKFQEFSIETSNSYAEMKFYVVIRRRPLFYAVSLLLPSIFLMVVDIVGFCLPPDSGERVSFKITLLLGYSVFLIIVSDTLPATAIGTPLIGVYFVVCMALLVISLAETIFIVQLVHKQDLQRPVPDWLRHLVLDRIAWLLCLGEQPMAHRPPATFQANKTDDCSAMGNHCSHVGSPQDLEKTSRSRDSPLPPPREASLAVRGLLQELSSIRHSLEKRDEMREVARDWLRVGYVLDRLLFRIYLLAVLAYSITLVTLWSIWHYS
# Sequence (Q9JJ16 whole entry): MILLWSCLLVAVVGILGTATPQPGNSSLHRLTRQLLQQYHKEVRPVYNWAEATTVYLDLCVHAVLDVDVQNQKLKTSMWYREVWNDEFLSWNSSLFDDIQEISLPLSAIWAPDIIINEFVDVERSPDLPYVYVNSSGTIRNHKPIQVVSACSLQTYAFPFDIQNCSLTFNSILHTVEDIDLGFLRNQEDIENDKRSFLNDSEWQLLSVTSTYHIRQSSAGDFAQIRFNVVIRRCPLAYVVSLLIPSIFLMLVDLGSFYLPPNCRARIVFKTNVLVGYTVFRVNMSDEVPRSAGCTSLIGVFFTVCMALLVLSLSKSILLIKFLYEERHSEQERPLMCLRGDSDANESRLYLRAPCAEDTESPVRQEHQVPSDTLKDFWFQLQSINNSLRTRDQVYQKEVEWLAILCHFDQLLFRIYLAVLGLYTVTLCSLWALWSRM
# experiment.summary: Inhibition of 5-HT (1 ug/mL) induced depolarization in rat vagus nerve (5-hydroxytryptamine 3 receptor antagonism)
# Format: functional, tissue-based
measured.endpoint: pIC50
Entry type: numeric. Quantity: pIC50, the -log10 of concentration in molar units.

Some solved entries appear below for comparison.
q: # return recorded pIC50 for entry CN1C2CCCC1CC(NC(=O)c1cnn3ccccc13)C2 (stereo not drawn)
a: 6.52

q: Give reported pIC50 value for O=C(NC1CN2CCC1CC2)c1cnn2ccccc12 (stereo not drawn)
a: 7.08

We now examine a further molecule.
q: Assign pIC50 to the following record: Cc1nn2ccccc2c1C(=O)NC1CC2CCCC(C1)N2C (stereo not drawn)
a: 7.00
